Consider the following compounds; for each one, report its growth.
# Tested on: UACC-62 melanoma
# EXPERIMENTAL_DETAILS: NCI-60 one-dose screen, 48 h (100 = growth as untreated, 0 = no growth, -100 = all killed)
# PARTICULARS: 10 µM unless noted
About 83,000 compounds went through this panel and 20% of them were active in at least one assay; those are over-represented in the sample as a whole. The source made the active and inactive calls. How the source made its calls: active means growth percent below 10; inactive means the rest.

compound=FC1(F)CCN(Cc2c[nH]c3cc(Cl)ccc23)C[C@H]1CCc1ccccc1 result_type=growth reported_value="59.9% (inactive)"
compound=COc1ccc2cc(-c3nc(C)c(C(C)=O)c(-c4ccc(C)cc4)n3)ccc2c1 result_type=growth reported_value="71.7% (inactive)"
compound=Cc1[nH]n(C(=O)c2ccncc2)c(=O)c1N=Nc1ccc(O)c(C(=O)O)c1 result_type=growth reported_value="96.2% (inactive)"

Each compound below has a recorded value; state its growth.
1. O=C(/C=C/c1ccccc1)n1c(-c2ccccc2)nc2ccccc21
2. C=C1NC(=O)C(C(C)CC)NC(=O)C2CSCC(NC(=O)CCC(=O)O)C(=O)NC(Cc3ccccc3)C(=O)NC(C)C(=O)NC(CC(C)CC)C(=O)NC(C(=O)NC(Cc3ccccc3)C(=O)N3CCCC3C(=O)N2)C(C)OC(=O)C(CO)NC(=O)C(C(O)COC)N(C)C(=O)C(C(C)C)NC(=O)C(CC(C)CC)NC1=O (stereo not given)

*A*
["103% (inactive)", "39.8% [6 µM] (inactive)"]

* * *

# System: MCF7 breast
# EXPERIMENTAL_DETAILS: NCI-60 one-dose screen, 48 h
# PARTICULARS: 10 µM unless noted
Compounds without any hit were thinned out: in the full panel of roughly 83,000, 20% have a hit. The source made the active and inactive calls. Rule for the calls: active = growth percent below 10; inactive = the rest.
Reply using exactly one outcome from yes (1) = active, no (0) = inactive

compound=COc1ccc(CCN2COc3c([C@@H](C)CCC=C(C)C)ccc(C)c3C2)cc1OC class_assignment="no (0)"
compound="CC(OC(=O)Nc1cccc(Cl)c1)C(=O)O (stereo not given)" class_assignment="no (0)"
compound=COc1ccc(/C=C2\Cc3c(Br)cccc3C2=O)c(OC)c1 class_assignment="no (0)"
compound="COC1CC(N)C2OC(c3ccccc3)OCC2O1 (stereo not given)" class_assignment="no (0)"
compound=O=c1c2sc3ncc(Cl)cc3c2nnn1-c1cccc(Cl)c1 class_assignment="no (0)"

Moving on to the next compound.
*Q* Recorded call for O=C(CI)NCCNc1cccc2c(S(=O)(=O)O)cccc12 ?
*A* no (0)

* * *

# Tested on: COLO 205 colon
# EXPERIMENTAL_DETAILS: NCI-60 one-dose screen, 48 h
# PARTICULARS: 10 µM unless noted
About 83,000 compounds went through this panel and 20% of them were active in at least one assay; those are over-represented in the sample as a whole. Activity calls are given as the source filed them. Rule for the calls: active = growth percent below 10; inactive = the rest.
Give your call using only these classes: active, inactive

# count of solved cases: 2
molecule=C/C(CC(=O)NNc1ccc([N+](=O)[O-])cc1)=N\Nc1ccc([N+](=O)[O-])cc1 tgt="COLO 205 colon" class_assignment=inactive
molecule="COc1cc(C2C=C(C)N=C3SC=NN32)cc(OC)c1OC (stereo not given)" tgt="COLO 205 colon" class_assignment=inactive

*Q* Status in this test for O=C(/C=C/c1ccccc1)C(Br)C(Br)c1ccccc1 (stereo not given) ?
*A* active

*Q* Check the results log: what was the call for CCc1oc2ccccc2c1C(=O)c1cc(I)c(O)c(I)c1 ?
*A* inactive

*Q* Query: recorded result category for O=C(C=P(c1ccccc1)(c1ccccc1)c1ccccc1)CCl in this test
*A* active
